System: Hepatotoxicity
methodSummary: FDA HLAED, lactate dehydrogenase (LDH) increase
reportedConditions: human
measureName: LDH Increase - Number of Reports

Below: 5 compounds and their reported LDH Increase - Number of Reports.
Clc1ccc(CSC(Cn2ccnc2)c2ccc(Cl)cc2Cl)cc1 (stereo not drawn) ... < 4
C[C@]12CC[C@@H]3c4ccc(OC(=O)c5ccccc5)cc4CC[C@H]3[C@@H]1CC[C@@H]2O [ESTRADIOL BENZOATE] ... >= 4
COc1ccc2cc([C@H](C)C(=O)O)ccc2c1 ... < 4
COc1ccc([C@@H]2Sc3ccccc3N(CCN(C)C)C(=O)[C@@H]2OC(C)=O)cc1 ... < 4
CCCCCCC(=O)O[C@H]1CC[C@H]2[C@@H]3CCc4cc(O)ccc4[C@H]3CC[C@]12C [ESTRADIOL ENANTHATE] ... >= 4

Would you kindly share the measured LDH Increase - Number of Reports for CC1(C)O[C@@H]2C[C@H]3[C@@H]4C[C@H](F)C5=CC(=O)C=C[C@]5(C)[C@H]4[C@@H](O)C[C@]3(C)[C@]2(C(=O)CO)O1 [FLUNISOLIDE] ?
< 4

Would you kindly share the measured LDH Increase - Number of Reports for CN1C(C(=O)Nc2ccccn2)=C(O)c2ccccc2S1(=O)=O ?
< 4

Would you kindly share the measured LDH Increase - Number of Reports for O=c1[nH]cnc2c1ncn2[C@H]1CC[C@@H](CO)O1 ?
>= 4

* * *

Tested on: Hepatotoxicity
methodSummary: FDA HLAED, gamma-glutamyl transferase (GGT) increase
reportedConditions: human
Recorded GGT Increase - Index Value for the following molecules
Please give the numeric answer without any surrounding text.

Below: 6 molecules and their reported GGT Increase - Index Value.
Clc1ccc(COC(Cn2ccnc2)c2ccc(Cl)cc2Cl)cc1 (centres undefined) [ECONAZOLE] ... 0
COc1ccc(OC)c(C(O)CNC(=O)CN)c1 (centres undefined) [MIDODRINE] ... 0
CC(C(=O)O)c1cccc(C(=O)c2ccccc2)c1 (centres undefined) [KETOPROFEN] ... 0
CC1(C)O[C@@H]2C[C@H]3[C@@H]4C[C@H](F)C5=CC(=O)C=C[C@]5(C)[C@H]4[C@@H](O)C[C@]3(C)[C@]2(C(=O)CO)O1 [FLUNISOLIDE] ... 0
O=C(O)[C@@H](S)[C@@H](S)C(=O)O ... 87.7
Cc1ccc(C(=O)Oc2ccc(C(O)CNC(C)(C)C)cc2OC(=O)c2ccc(C)cc2)cc1 (centres undefined) [BITOLTEROL] ... 0

Request - read-out GGT Increase - Index Value | tested on Hepatotoxicity | molecule Nc1nc(O)c2ncn(COC(CO)CO)c2n1 [GANCICLOVIR]
0.8

Request - read-out GGT Increase - Index Value | tested on Hepatotoxicity | molecule CCOC(=O)c1cncn1[C@H](C)c1ccccc1 [ETOMIDATE]
0

Request - read-out GGT Increase - Index Value | tested on Hepatotoxicity | molecule CCOC(=O)c1ncn2c1CN(C)C(=O)c1cc(F)ccc1-2 [FLUMAZENIL]
0

* * *

Test system: Hepatotoxicity
methodSummary: FDA HLAED, serum glutamic oxaloacetic transaminase (SGOT) increase
reportedConditions: human
measureName: SGOT Increase - Activity Score

Cn1cc([S+](C)[O-])c(=O)c2ccc(F)cc21 (stereo not given) [FLOSEQUINAN] ... Inactive
O=C(NCC(O)CO)c1c(I)c(C(=O)NCC(O)CO)c(I)c(N(CCO)C(=O)CO)c1I (stereo not given) [IOVERSOL] ... Inactive
CNC(=C[N+](=O)[O-])NCCSCc1ccc(CN(C)C)o1 [RANITIDINE] ... Inactive
Nc1nc(O)c2ncn(COC(CO)CO)c2n1 [GANCICLOVIR] ... Inactive

Field: next compound
Would you kindly share the measured SGOT Increase - Activity Score for O=C1C(O)=C([C@H]2CC[C@H](c3ccc(Cl)cc3)CC2)C(=O)c2ccccc21 [ATOVAQUONE] ?
Inactive
